Assay: CEETOX_H295R_MTT_cell_viability: Viability Assessment in the CeeTox HT-H295R MTT Assay (AID 2283718)
Active and inactive are the calls of the source. The calls were made as follows: active = hit-call score of the fitted dose curve at least 0.9, where 1 is the maximum; inactive = score below 0.9.
measured_attribute: outcome

Query (compound): COC(=O)C(C)Oc1ccc(Oc2ncc(C(F)(F)F)cc2Cl)cc1 (stereo not drawn) ; field requested: outcome inactive

Query (compound): COc1cc(OC)c2ccc(=O)oc2c1 ; field requested: outcome inactive

Query (compound): OCC=Cc1ccccc1 ; field requested: outcome inactive

---

Biological target: Nuclear receptor subfamily 1 group I member 2 (Homo sapiens) (UniProt O75469)
Sequence (O75469 whole entry, looked up): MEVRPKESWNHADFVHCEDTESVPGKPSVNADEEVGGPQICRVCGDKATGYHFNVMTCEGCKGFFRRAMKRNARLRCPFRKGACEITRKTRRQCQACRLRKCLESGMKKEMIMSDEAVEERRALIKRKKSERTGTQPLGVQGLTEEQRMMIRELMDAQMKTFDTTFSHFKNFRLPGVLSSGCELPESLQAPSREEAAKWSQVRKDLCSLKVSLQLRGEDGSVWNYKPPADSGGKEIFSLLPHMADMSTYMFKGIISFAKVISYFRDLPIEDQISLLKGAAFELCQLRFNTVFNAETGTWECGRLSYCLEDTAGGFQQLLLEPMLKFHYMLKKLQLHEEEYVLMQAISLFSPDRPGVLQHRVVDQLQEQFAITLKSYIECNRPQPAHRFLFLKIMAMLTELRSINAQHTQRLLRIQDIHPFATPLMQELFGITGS
Assay: ATG_PXR_TRANS: Attagene TRANS-FACTORIAL HepG2 Assay for human Pregnane X Receptor (PXR) (AID 2283008)
Results filed as inconclusive are left out. Activity calls are given as the source filed them. The calls were made as follows: active = hit-call score of the fitted dose curve at least 0.9, where 1 is the maximum; inconclusive = response in the unintended direction; inactive = score below 0.9.
Hi! Could you answer with just one of these? true (1) = active, false (0) = inactive

Check the results log: what was the call for CC(C)(O)C(=O)c1ccc(OCCO)cc1 ? false (0)

Next:
Check the results log: what was the call for Cc1ccncc1 ? false (0)

Check the results log: what was the call for CCCCCCCOC(C)=O ? false (0)

Check the results log: what was the call for CC(=O)c1ccc2ccccc2c1 ? false (0)

Check the results log: what was the call for OC[C@@H](O)[C@H](O)[C@@H](O)[C@@H](O)CO ? false (0)

Check the results log: what was the call for CC1=CC(C)C(C=O)C(C)C1 (configuration not stated) (tested in a mixture with another compound) ? false (0)

---

Experiment: BSK_LPS_PGE2: BioMAP Diversity Plus: LPS Assay for Prostaglandin E2 (PGE2) Biomarker Activity (AID 2283082)
Conditions: primary human HUVEC with PBMC; actives raise or lower the signal
Calls of active or inactive are those of the source. The calls were made as follows: active = hit-call score of the fitted dose curve at least 0.9, where 1 is the maximum; inactive = score below 0.9.
Hi! Could you answer with just one of these? true = active, false = inactive

Check the results log: what was the call for CC(C)(C)c1cccc(O)c1 ? false

Check the results log: what was the call for CCOC(=O)CCCCCCCCC(=O)OCC ? false

Check the results log: what was the call for c1ccc(Sc2ccccc2)cc1 ? false

Check the results log: what was the call for CCCO[Si](OCCC)(OCCC)OCCC ? false

Check the results log: what was the call for O=C1OC2(c3ccc(O)cc3Oc3cc(O)ccc32)c2ccccc21 ? false

Next:
Check the results log: what was the call for Nc1ccc(N)c([N+](=O)[O-])c1 ? false

Check the results log: what was the call for CCCCCCCCCCCCS ? true

Check the results log: what was the call for NC(=O)c1c(Cl)cccc1Cl ? false

---

Assay: ATG_ISRE_CIS: Attagene CIS-FACTORIAL HepG2 Assay for human Interferon Regulatory Factor 1 (IRF1) binding to an Interferon-Stimulated Response Element (ISRE) (AID 2282948)
Details: HepG2 ISRE cis-reporter (Attagene), mRNA transcription readout; actives raise or lower the signal
Calls of active or inactive are those of the source. How the source made its calls: active means hit-call score of the fitted dose curve at least 0.9, where 1 is the maximum; inactive means score below 0.9.
Hi! Could you answer with just one of these? active, inactive

The following compounds have reported results that may help.
Check the results log: what was the call for CN(C)C(=O)Nc1ccccc1 ? inactive

Check the results log: what was the call for C=CCCCCCCCCC(=O)OCC ? inactive

Check the results log: what was the call for CC/C=C\CCOC(=O)C(C)C ? inactive

Check the results log: what was the call for CCCCCCCCCO ? inactive

Next:
Check the results log: what was the call for C=CC(=O)OCC(CO)(COC(=O)C=C)COC(=O)C=C ? active

Check the results log: what was the call for [O-]/[N+](=N\O)c1ccccc1 ? inactive

Check the results log: what was the call for CCCCCCCCCCCCOCCOS(=O)(=O)O ? inactive
